Before we begin, note that these pIC50 values for ROCK2 (Homo sapiens) originate from several publications.
pIC50: −log10 of the molar value.

Before answering, review these 7 worked examples.
Compound: Cc1cc(-c2nc(Nc3ccc4c(c3C)CNC4=O)n(C)n2)ccc1-n1cnc(C2CC2)c1
pIC50: > 6.52

Compound: O=C(c1cc2c(s1)CN(c1nccc(Nc3ccc(-c4cnc[nH]4)cc3)n1)CC2)N1CC2C(C1)C2(F)F (centres unmarked)
pIC50: 6.48

Compound: CCn1nc(-c2ccc(-c3ccc(C4CC4)nc3)c(F)c2)nc1Nc1cc2c(cc1F)C(=O)NC2C (centres unmarked)
pIC50: > 6.52

Compound: CCn1nc(-c2cc(C)c(-c3ccc(C)cn3)cc2F)nc1Nc1cc2c(cc1C)C(=O)NC2C (centres unmarked)
pIC50: > 6.52

Compound: CCn1nc(-c2ccc(-c3ccc(C4CC4)nc3)c(C)c2)nc1Nc1ccc2c(c1)C1(CC1)NC2=O
pIC50: > 6.52

Compound: CCn1nc(-c2cc(C)c(-c3cn(C)c(C4CC4)n3)cc2C)nc1Nc1ccc2c(c1)C(C)NC2=O (centres unmarked)
pIC50: > 6.52

Compound: CCn1nc(-c2ccc(-c3ccn(CC(F)(F)F)c3)cc2)nc1Nc1cc2c(cc1C)C(=O)NC2C (centres unmarked)
pIC50: > 6.52

Alright, here's another compound for you.
Data point: "CC(C)C[C@@H](N)C(=O)Nc1ccc(-c2ccnc3[nH]ccc23)cc1F" ; pIC50 = 7.31
